experiment: Cytotoxicity against African green monkey Vero cells assessed as change in cell morphology by microscopic analysis; assay type: toxicity, cell-based; settings: chlorocebus sabaeus
Residues, ends and D or L forms follow the SMILES beside them. *: point of attachment. Octanoyl = CCCCCCCC(=O)*; Boc = CC(C)(C)OC(=O)*
I'd be grateful if you could share measured MCC for these entries.

Task: Using the record for CC(=O)NCC(=O)N[C@@H](Cc1ccccc1)C(=O)N[C@H](C=O)Cc1c[nH]cn1 (Ac-Gly-Phe-His-aldehyde) , report its MCC.
Output: ≥ 100 µM

Task: Entry under review: CC(C)(C)OC(=O)NCC(=O)N[C@@H](Cc1ccccc1)C(=O)N[C@H](C=O)Cc1c[nH]cn1 (Boc-Gly-Phe-His-aldehyde) . Reported MCC?
Output: ≥ 100 µM

Task: I would be grateful if you could share the reported MCC for CCCCCCCC(=O)NCC(=O)N[C@@H](Cc1ccccc1)C(=O)N[C@H](C=O)Cc1c[nH]cn1 (Octanoyl-Gly-Phe-His-aldehyde) .
Output: ≥ 100 µM

Task: Looking for the measured MCC of CCC(CC)COC(=O)[C@H](C)N[P@](=O)(OC[C@H]1O[C@@](C#N)(c2ccc3c(N)ncnn23)[C@H](O)[C@@H]1O)Oc1ccccc1 , can you help?
Output: 80 µM

====

assay: Tmax in C57BL6 mouse at 10 mg/kg, po; type: ADME, organism-based; settings: in vivo
Residues, ends and D or L forms follow the SMILES beside them. *: point of attachment. Octanoyl = CCCCCCCC(=O)*
Measure: Tmax (min)
Express it in min; write the number only.

Task: Any idea what its Tmax is? The molecule is CCCCCCCC(=O)NCC(=O)N[C@@H](Cc1ccccc1)C(=O)N[C@H](C=O)Cc1c[nH]cn1 (Octanoyl-Gly-Phe-His-aldehyde)
Output: 45

====

Provide the recorded MCC for the entries that follow.
test: Cytotoxicity against HELF cells assessed as change in cell morphology; assay type: toxicity, cell-based; settings: human
Residues, ends and D or L forms follow the SMILES beside them. *: point of attachment. Octanoyl = CCCCCCCC(=O)*; Boc = CC(C)(C)OC(=O)*

Task: Look up MCC: CC(C)(C)OC(=O)NCC(=O)N[C@@H](Cc1ccccc1)C(=O)N[C@H](C=O)Cc1c[nH]cn1 (Boc-Gly-Phe-His-aldehyde)
Output: > 100 µM

Task: Query (molecule): CCCCCCCC(=O)NCC(=O)N[C@@H](Cc1ccccc1)C(=O)N[C@H](C=O)Cc1c[nH]cn1 (Octanoyl-Gly-Phe-His-aldehyde) ; field requested: MCC
Output: > 100 µM

Task: Give its MCC value. Item: Nc1nc2c(ncn2COCCO)c(=O)[nH]1 [ACYCLOVIR]
Output: > 444 µM

Task: Would you kindly share the measured MCC for O=c1[nH]c(=O)n([C@H]2C[C@H](O)[C@@H](CO)O2)cc1/C=C/Br [BRIVUDINE] ?
Output: > 300 µM

Task: Look at this molecule and give its reported MCC. CC(=O)NCC(=O)N[C@@H](Cc1ccccc1)C(=O)N[C@H](C=O)Cc1c[nH]cn1 (Ac-Gly-Phe-His-aldehyde)
Output: > 100 µM

====

test system: Vero; assay: Cytotoxicity against African green monkey Vero cells assessed as reduction in cell growth by Coulter counter analysis; assay type: toxicity, cell-based; conditions: chlorocebus sabaeus
Residues, ends and D or L forms follow the SMILES beside them. *: point of attachment. Octanoyl = CCCCCCCC(=O)*; Boc = CC(C)(C)OC(=O)*
Measure: CC50

Task: So what's the measured CC50 for this one? CCC(CC)COC(=O)[C@H](C)N[P@](=O)(OC[C@H]1O[C@@](C#N)(c2ccc3c(N)ncnn23)[C@H](O)[C@@H]1O)Oc1ccccc1
Output: 70.6 µM

Task: Requested field: CC50. Item: CC(=O)NCC(=O)N[C@@H](Cc1ccccc1)C(=O)N[C@H](C=O)Cc1c[nH]cn1 (Ac-Gly-Phe-His-aldehyde)
Output: > 100 µM

Task: State the recorded CC50 for this entry: CCCCCCCC(=O)NCC(=O)N[C@@H](Cc1ccccc1)C(=O)N[C@H](C=O)Cc1c[nH]cn1 (Octanoyl-Gly-Phe-His-aldehyde)
Output: > 100 µM

Task: Query: CC50; subject: CC(C)(C)OC(=O)NCC(=O)N[C@@H](Cc1ccccc1)C(=O)N[C@H](C=O)Cc1c[nH]cn1 (Boc-Gly-Phe-His-aldehyde)
Output: > 100 µM
